target: H1 histaminergic receptors (Homo sapiens, UniProt P35367); construct: expressed in transfected cells; host or cells: HEK-293 cells; assay: Radioligand binding assay, histaminergic H1 receptors; details: human recombinant (HEK-293 cells), [3H]pyrilamine 1 nM
Sequence (P35367 whole entry): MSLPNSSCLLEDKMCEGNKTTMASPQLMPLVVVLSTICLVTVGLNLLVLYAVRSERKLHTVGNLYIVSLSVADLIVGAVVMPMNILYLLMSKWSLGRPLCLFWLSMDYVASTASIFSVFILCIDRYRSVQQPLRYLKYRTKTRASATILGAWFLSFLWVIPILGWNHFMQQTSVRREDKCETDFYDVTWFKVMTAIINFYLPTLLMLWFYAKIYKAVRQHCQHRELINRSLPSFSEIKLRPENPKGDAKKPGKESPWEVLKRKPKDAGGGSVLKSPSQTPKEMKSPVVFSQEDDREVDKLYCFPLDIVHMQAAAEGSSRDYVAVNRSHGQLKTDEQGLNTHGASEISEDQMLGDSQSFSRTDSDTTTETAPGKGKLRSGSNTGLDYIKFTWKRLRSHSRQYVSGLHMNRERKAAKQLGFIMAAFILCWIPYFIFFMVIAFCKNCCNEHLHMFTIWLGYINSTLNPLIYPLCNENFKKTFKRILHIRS
measurement.label: inhibition at 1 µM (%)

1. O=S(=O)(N[C@@H]1CCN(CCCc2noc3cc(F)ccc23)C1)c1cc2ccccc2s1 [Compound 196] ... 84
2. O=S(=O)(NC1CN(CCOc2cccc3[nH]ccc23)C1)c1ccc(F)cc1 [Compound 46] ... 6
3. O=S(=O)(NC1CCN(CCCc2c[nH]c3ccc(F)cc23)C1)c1ccc(F)cc1 (centres unmarked) [Compound 75] ... 57
4. O=S(=O)(NCC1CCN(CCOc2cccc3c2OCCO3)C1)c1ccc(F)c(Cl)c1 (centres unmarked) [Compound 317] ... 47
5. O=S(=O)(NC1CCN(CCCc2c[nH]c3ccc(F)cc23)C1)c1cccc2ccccc12 (centres unmarked) [Compound 79] ... 72
